System: SW-620 colon
Test: NCI tumour cell line growth inhibition, 48 h
observation_type: TGI

>>> endpoint_result("CCCCCCCCCc1cc(=O)c2ccc(OCc3ccccc3)cc2o1")
"> 100 µM"
>>> endpoint_result("COc1cc2c(cc1OCCCCOc1cc(-c3ccc(F)cc3)nc(C)n1)N=C[C@@H]1CCCN1C2=O")
"4.85 µM"
>>> endpoint_result("CCCCCCCCCC[C@H](O)[C@H]1CC[C@H]([C@H]2CC[C@H]([C@H](O)CC[C@H](O)CCCCCCC[C@@H](O)CC3=C[C@H](C)OC3=O)O2)O1")
"> 100 µM"
>>> endpoint_result("O=CNc1c(Cl)cc2c(c1Cl)Cc1cc([N+](=O)[O-])ccc1-2")
"> 100 µM"
>>> endpoint_result("CCCCOc1ccc(NC(N)=Nc2ccc(Cl)cc2)cc1")
"16.1 µM"
>>> endpoint_result("COc1ccc(N[C@H](CSc2ccc(C)cc2)c2ccc(F)cc2)cc1")
"> 100 µM"
>>> endpoint_result("CC(C)(C)OC(=O)C#CC[C@H]1CCCC1/C=C/C(O)=C1/C(=O)NC(CCCNC(=O)OC(C)(C)C)C1=O (stereo partly drawn)")
"> 100 µM"
>>> endpoint_result("CCCC[C@H](NC(=O)[C@H]1CCCN1C)C(=O)N(C)[C@H](C[C@@H](OC(C)=O)c1nc(C(=O)N[C@@H](Cc2ccccc2)C[C@H](C)C(=O)OCC)cs1)C(C)C")
"> 33.3 µM"

---

Tested on: U251 CNS
Labels: active, inactive

>>> classification("COC(=O)/C=C/C=C(c1ccccc1)c1ccccc1")
"inactive"
>>> classification("C=CCc1c2c(c(OC)c3ccoc13)C(=O)/C(=C/c1ccccc1OC)O2")
"inactive"
>>> classification("Nc1cc2cccc[n+]2c2cc(Cl)ccc12")
"inactive"
>>> classification("Oc1ccc(-c2nnc3sc(-c4ccc(F)cc4)nn23)cc1")
"inactive"
>>> classification("Cc1[c-]onc1C.Cc1[c-]onc1C.[Ag].[Ag].[NH-]S(=O)(=O)c1ccc(N=Nc2cc(N=Nc3ccc(S([NH-])(=O)=O)cc3)c3c(NC(=O)C(Cl)Cl)cccc3c2OC(=O)C(Cl)Cl)cc1")
"inactive"
>>> classification("Cc1ccc2c(ccc3c[n+]4c5ccccc5ccc4n32)c1")
"active"
>>> classification("COc1cccc(/C=C/C(=O)c2cccc(Nc3nc(Nc4ccccc4)nc(Nc4ccccc4)n3)c2)c1")
"inactive"
>>> classification("Cc1c(C(=O)/C=C/c2csc3ccccc23)[n+](=O)c2ccccc2n1[O-]")
"inactive"
>>> classification("Nc1c(C(=O)Nc2cccc([N+](=O)[O-])c2)sc2nc3c(cc12)C(O)CCC3 (configuration not stated)")
"inactive"
>>> classification("CC1SC(c2c(Cl)cccc2Cl)N(NC(=O)c2[nH]c3ccc(F)cc3c2-c2ccccc2)C1=O (configuration not stated)")
"inactive"
>>> classification("CC(C)(C)C[C@H]1NC(C(=O)NCC[C@H](O)CO)[C@H](c2cccc(Cl)c2)[C@@]12C(=O)Nc1cc(Cl)c(F)cc12 (some centres not stated)")
"inactive"
>>> classification("C=C1C(=O)O[C@H]2[C@H]1CC/C(COC(=O)NCc1ccccc1OC)=C\\CC[C@@]1(C)O[C@@H]21")
"inactive"

---

System: SR leukemia
Test: NCI tumour cell line growth inhibition, 48 h; in the data active = GI50 below about 0.43 µM; inactive = the rest
Classes used: 1 for active, 0 for inactive

>>> classification("CN(C)c1nc(=NCc2ccncc2)ss1")
0
>>> classification("CN(CCCN)CCCNc1nc2ccccc2c2[nH]c3ccccc3c12")
1
>>> classification("COc1ccc2nc3cc([N+](=O)[O-])ccc3c(NCCCCCN(C)C)c2c1")
1
>>> classification("Cc1[c-]onc1C.Cc1[c-]onc1C.[Ag].[Ag].[NH-]S(=O)(=O)c1ccc(N=Nc2cc(N=Nc3ccc(S([NH-])(=O)=O)cc3)c3c(NC(=O)C(Cl)Cl)cccc3c2OC(=O)C(Cl)Cl)cc1")
0
>>> classification("CN(C)S(=O)(=O)c1ccc(NC(=O)COC(=O)c2ccc(S(=O)(=O)N3CCCCC3)cc2)cc1")
0
>>> classification("CC(C)(C)C#CC1=C(Br)C(=O)OC1")
0
>>> classification("COC(=O)[C@]12CC[C@@H](C)[C@H](C)[C@@H]1C1=CC[C@@H]3[C@@]4(C)C[C@@H](OC(C)=O)[C@H](O)[C@@](C)(COC(C)=O)[C@@H]4[C@H](O)C[C@@]3(C)[C@]1(C)CC2")
0
>>> classification("Nc1nc(Cl)cc(OCC2(O)CC(COC(=O)c3ccccc3)C2)n1 (stereo not drawn)")
0

---

Tested on: NCI-H23 lung
Assay: NCI tumour cell line growth inhibition, 48 h
observation_type: TGI (µM)

>>> endpoint_result("CCCN=Cc1cc(Cc2ccc(O)c(C=NCCC)c2)ccc1O")
26.2
>>> endpoint_result("Cc1cc(C)c2c(=O)n(CN3CC4Nc5ccccc5C4C3)sc2n1 (stereo not given)")
47.6
>>> endpoint_result("COc1ccc2nc3cc([N+](=O)[O-])ccc3c(NCCCCCN(C)C)c2c1")
1.54
>>> endpoint_result("COC(=O)[C@]12CC[C@@H](C)[C@H](C)[C@@H]1C1=CC[C@@H]3[C@@]4(C)C[C@@H](OC(C)=O)[C@H](O)[C@@](C)(COC(C)=O)[C@@H]4[C@H](O)C[C@@]3(C)[C@]1(C)CC2")
8.44

---

Tested on: UO-31 renal
Assay: NCI tumour cell line growth inhibition, 48 h
Entries and their GI50
observation_type: GI50

>>> endpoint_result("CC(C)(C)C[C@H]1NC(C(=O)NCC[C@H](O)CO)[C@H](c2cccc(Cl)c2)[C@@]12C(=O)Nc1cc(Cl)c(F)cc12 (stereo not given in full)")
"5.13 µM"
>>> endpoint_result("N#Cc1cnc2cc(OC[C@H](O)CO)c(NC(=O)CC3CSSC3)cc2c1Nc1ccc(OCc2cccc(F)c2)c(Cl)c1")
"2.11 µM"
>>> endpoint_result("COc1cccc(/C=C/C(=O)c2cccc(Nc3nc(Nc4ccccc4)nc(Nc4ccccc4)n3)c2)c1")
"7.36 µM"
>>> endpoint_result("CN1CCN(CCc2cccc(C(=O)c3cnn(-c4ccc(F)cc4)c3N)c2)CC1")
"> 25 µM"
>>> endpoint_result("CCCCN1CCN(c2ccc3nc(-c4ccc5nc(-c6ccc(C(F)(F)F)cc6)[nH]c5c4)[nH]c3c2)CC1")
"1.75 µM"

---

Tested on: EKVX NSCLC
Experiment: NCI tumour cell line growth inhibition, 48 h; in the data active means GI50 below about 0.43 µM; inactive means the rest
Possible outcomes: class 1 (active), class 0 (inactive)

>>> classification("CCCC[C@H](NC(=O)[C@H]1CCCN1C)C(=O)N(C)[C@H](C[C@@H](OC(C)=O)c1nc(C(=O)N[C@@H](Cc2ccccc2)C[C@H](C)C(=O)OCC)cs1)C(C)C")
"class 1"
>>> classification("COC(=O)[C@@H](C)C[C@H](Cc1ccccc1)NC(=O)c1nc([C@@H](C[C@H](C(C)C)N(C)C(=O)[C@@H](NC(=O)[C@H]2CCCCN2C)C(C)C)OC(C)=O)sc1C")
"class 1"
>>> classification("C[C@@H](C(=O)Nc1ccc(Cl)cc1)C1CCC(c2ccnc3ccc(F)cc23)CC1 (some centres undefined)")
"class 0"
>>> classification("COc1ccc2c(c1)O/C(=C\\c1cccc(OCC(=O)Nc3nc4c(s3)CCCC4)c1)C2=O")
"class 0"
>>> classification("COC1(C(=O)N[C@@H](C)c2ccc(-n3cc(F)cn3)nc2)CCC(c2nc(C)cc(Nc3cc(C)[nH]n3)n2)CC1 (some centres undefined)")
"class 0"
>>> classification("CNC(=O)c1cncc(/C=C/c2ccccc2C)c1")
"class 0"
>>> classification("COc1cc(Cl)cc(-c2nn(C(=O)NCCN3CCOCC3)cc2-c2ccncc2)c1")
"class 0"
>>> classification("CNC(=O)n1ccc2cc(Oc3ccnc(NC(=O)c4ccc(C5CCN(CCO)CC5)cc4)c3)c(OCCOC)cc21")
"class 0"
>>> classification("CC/C=C\\C=C/C(=O)N/C=C/CC1Cc2cccc(O)c2C(=O)O1 (centres undefined)")
"class 0"

---

System: HCC-2998 colon
Assay: NCI tumour cell line growth inhibition, 48 h; in the data active means GI50 below about 0.43 µM; inactive means the rest
Classes used: active, inactive

>>> classification("COC1(C(=O)N[C@@H](C)c2ccc(-n3cc(F)cn3)nc2)CCC(c2nc(C)cc(Nc3cc(C)[nH]n3)n2)CC1 (some centres undefined)")
"inactive"
>>> classification("COc1ccc(C(=O)/C=C/c2ccc(/C=C/c3cc(OC)c(OC)c(OC)c3)cc2)cc1")
"inactive"
>>> classification("Nc1ccn(Cc2ccc(C34CC5CC(CC(C5)C3)C4)c(O)c2)c(=O)n1")
"inactive"
>>> classification("CN(C)S(=O)(=O)c1ccc(NC(=O)COC(=O)c2ccc(S(=O)(=O)N3CCCCC3)cc2)cc1")
"inactive"
>>> classification("C[C@H](Nc1ncnc2nc[nH]c12)c1cc2cccc(Cl)c2c(=O)n1-c1ccccc1")
"inactive"
>>> classification("Cc1c(C(=O)/C=C/c2csc3ccccc23)[n+](=O)c2ccccc2n1[O-]")
"inactive"
>>> classification("O=C1c2ccccc2-c2c1c1ccccc1c(=O)n2CCCNCCCNCCCn1c2c(c3ccccc3c1=O)C(=O)c1ccccc1-2")
"active"
>>> classification("Nc1c(C(=O)Nc2cccc([N+](=O)[O-])c2)sc2nc3c(cc12)C(O)CCC3 (centres undefined)")
"inactive"
>>> classification("CCCC[C@H](NC(=O)[C@H]1CCCN1C)C(=O)N(C)[C@H](C[C@@H](OC(C)=O)c1nc(C(=O)N[C@@H](Cc2ccccc2)C[C@H](C)C(=O)OCC)cs1)C(C)C")
"active"
>>> classification("CC(C)(C)C#CC1=C(Br)C(=O)OC1")
"inactive"
>>> classification("Cc1[c-]onc1C.Cc1[c-]onc1C.[Ag].[Ag].[NH-]S(=O)(=O)c1ccc(N=Nc2cc(N=Nc3ccc(S([NH-])(=O)=O)cc3)c3c(NC(=O)C(Cl)Cl)cccc3c2OC(=O)C(Cl)Cl)cc1")
"inactive"
>>> classification("C[C@@H](C(=O)Nc1ccc(Cl)cc1)C1CCC(c2ccnc3ccc(F)cc23)CC1 (some centres undefined)")
"inactive"
>>> classification("N#Cc1cnc2cc(OC[C@H](O)CO)c(NC(=O)CC3CSSC3)cc2c1Nc1ccc(OCc2cccc(F)c2)c(Cl)c1")
"inactive"
>>> classification("C=C1C(=O)O[C@H]2[C@H]1CC/C(COC(=O)NCc1ccccc1OC)=C\\CC[C@@]1(C)O[C@@H]21")
"inactive"
>>> classification("CCN(Cc1ccc(F)c(F)c1)c1ccc(CO)c(Cl)c1")
"inactive"
>>> classification("CCN(CC)c1ccc(C(=C2C=CC(=[N+](CC)Cc3cccc(S(=O)(=O)O)c3)C=C2)c2ccc(N(CC)Cc3cccc(S(=O)(=O)O)c3)cc2)cc1")
"inactive"
>>> classification("CNC(=O)n1ccc2cc(Oc3ccnc(NC(=O)c4ccc(C5CCN(CCO)CC5)cc4)c3)c(OCCOC)cc21")
"inactive"
>>> classification("Cc1ccc(/C=C2\\CN(C(=O)OC(C)(C)C)C/C(=C\\c3ccc(C)cc3)C2=O)cc1")
"active"
>>> classification("COc1ccc2c(c1)O/C(=C\\c1cccc(OCC(=O)Nc3nc4c(s3)CCCC4)c1)C2=O")
"inactive"

src = PubChem BioAssay (NCI)
